# Test system: OVCAR-3 ovarian
# assay method text: NCI tumour cell line growth inhibition, 48 h
Where a SMILES comes first, the peptide text is derived from it. [ ]: non-standard residue; d: D form. The star is where a group is joined. hSer = N[CH](CCO)C(=O)O; Boc = CC(C)(C)OC(=O)*
TGI overview
measurement kind: TGI

| compound | reported |
| --- | --- |
| CN(C(=O)c1ccc(F)cc1C(F)(F)F)C1CCN(c2nnc(-c3ccnn3C)c3ccccc23)CC1 | > 100 µM |
| COc1ccccc1-c1cc2c3c(nc4ccccc42)C(=O)c2cccnc2-c3n1 | > 37.5 µM |
| CCN(CC)c1ccc(NC(C(=O)c2ccccc2)c2ccccc2)cc1 (stereo not given) | 8.15 µM |
| COCCC(NC(=O)C(CC(C)C)NC(=O)OC(C)(C)C)C(N)=O (stereo not drawn) (Boc-Leu-[hSer](Me)-NH2; configuration not given here) | > 100 µM |
| O=C(CCSC(CC(=O)c1ccc(Cl)cc1)c1ccc(Cl)cc1)Nc1ccc(Cl)cc1 (stereo not given) | 27.1 µM |
| Cc1cccc(C)c1NC(=O)CCC(=O)NNC(=O)c1cc(O)c2ccccc2c1 | > 100 µM |
| COc1ccc(CC(=O)c2cc(OC)c(OC)cc2C)cc1OC | > 100 µM |
| CCCCOC1CC2(c3ccc(OC)cc3)C(=O)c3ccccc3N2O1 (stereo not given) | > 100 µM |
| CCOc1ncn(-c2ccc(NC(=S)Nc3cccc(O)c3)cc2)n1 | > 100 µM |
| O=[N+]([O-])/C(C(Cl)=C(Cl)Cl)=C1\Nc2ccccc2O1 | 63.6 µM |

---

# System: HCC-2998 colon
# assay method text: NCI tumour cell line growth inhibition, 48 h
Where a SMILES comes first, the peptide text is derived from it. [ ]: non-standard residue; d: D form. The star is where a group is joined. ξ: configuration not given here. X16 = COC1=CC(=O)N(C(=O)C(O*)C(C)C)C1Cc1ccccc1; ξNMe2Val = CC(C)C(C(=O)*)N(C)C; NMeV = CN[CH](C(=O)O)C(C)C

| compound | assayed target | GI50 |
| --- | --- | --- |
| Brc1c[n+](Cc2ccc3ccccc3c2)cn1Cc1ccc2ccccc2c1 | HCC-2998 colon | 1.46 µM |
| COC1=CC(=O)N(C(=O)C(OC(=O)C2CCCN2C(=O)C2CCCN2C(=O)C(C(C)C)N(C)C(=O)C(NC(=O)C(C(C)C)N(C)C)C(C)C)C(C)C)C1Cc1ccccc1 (stereo unspecified) (ξNMe2Val-V[NMeV]PP-X16; configuration not given here) | HCC-2998 colon | < 0.0004 µM |
| [Cu+2].[Cu+2].[O-]c1ccccc1C=Nc1ccccc1[O-].[O-]c1ccccc1C=Nc1ccccc1[O-] | HCC-2998 colon | 10.3 µM |
| O=C(NNc1nc2cc(F)ccc2n2c(CN3CCOCC3)ccc12)c1ccccc1 | HCC-2998 colon | 0.569 µM |
| COc1ccc(-c2nc(-c3nc4ccc(F)cc4[nH]3)cc3c2[nH]c2ccccc23)cc1 | HCC-2998 colon | 3.71 µM |
| COc1ccc2c(c1)Oc1nc(N)c(C#N)c(N)c1C2Sc1ccc(SC)cc1 (stereo unspecified) | HCC-2998 colon | 1.78 µM |

---

# Test system: EKVX NSCLC
# assay method text: NCI tumour cell line growth inhibition, 48 h; in the data active = GI50 below about 0.43 µM; inactive = the rest
Labels: active, inactive

| compound | label class |
| --- | --- |
| CN(C(=O)c1ccc(F)cc1C(F)(F)F)C1CCN(c2nnc(-c3ccnn3C)c3ccccc23)CC1 | inactive |
| O=C1Nc2ccc(Cl)cc2/C1=C\c1c(-c2ccc(F)cc2)nc2ccccn12 | inactive |
| CCCOC(=O)N[C@H]1CCc2c(Br)c(OC)c(OC)c(OC)c2-c2ccc(SC)c(=O)cc21 | active |
| Cn1ncc2cc(-c3cnc(N)c(Cl)c3N3CCC4(CCNC4=O)CC3)ccc21 | inactive |
| COc1ccc(-c2cc3c4c(nc5ccccc5c4c2)CC(c2cc(OC)c(OC)c(OC)c2)O3)cc1 (stereo not drawn) | inactive |
| O=C1C(=O)c2ccc(Br)cc2-c2cc(Br)ccc21 | inactive |
| OCC(O)CC[CH2][Sn]([c]1ccccc1)([c]1ccccc1)[c]1ccccc1 (stereo not drawn) | inactive |
| Nc1ccccc1C#C/C=C\C#Cc1ccc(F)cc1F | inactive |

---

# Test system: CAKI-1 renal
# assay method text: NCI tumour cell line growth inhibition, 48 h
measurement kind: GI50

| compound | measurement kind | reported |
| --- | --- | --- |
| Nc1ccccc1C#C/C=C\C#Cc1ccc(F)cc1F | GI50 | 3.13 µM |
| COc1ccc(C(CC(=O)c2ccccc2)C(C(=O)c2ccccc2)C(c2ccc(OC)cc2)C2C(=O)NC(=O)NC2=O)cc1 (stereo not drawn) | GI50 | 2.85 µM |
| CN(C(=O)C1CCCCC1)c1ccccc1I(=O)=O | GI50 | 36.8 µM |
| O=C1C(=O)c2ccc(Br)cc2-c2cc(Br)ccc21 | GI50 | 2.09 µM |
| COC1=CC(c2ccc[nH]2)=N/C1=C\c1[nH]c(C)c(C(=O)CCC(=O)Oc2ccc3c(c2)CCC2C3CC[C@]3(C)C(=O)CC[C@@H]23)c1C (stereo partly drawn) | GI50 | 8.77 µM |
| COc1ccc(/C=C2/CN(C(=O)c3ccccc3F)C/C(=C\c3ccc(OC)cc3)C2=O)cc1 | GI50 | 4.87 µM |
| OCC(O)CC[CH2][Sn]([c]1ccccc1)([c]1ccccc1)[c]1ccccc1 (stereo not drawn) | GI50 | 8.12 µM |
| O=C(NCc1cn(Cc2cccc(Oc3ccccc3)c2)nn1)c1cccnc1Nc1ccccc1 | GI50 | 5.45 µM |
| COCCNCC(O)Cn1c2ccc(Cl)cc2c2cc(Cl)ccc21 (stereo not drawn) | GI50 | 1.7 µM |
| CCOc1ccc(NC(=O)Nc2cc(C(C)C)ccc2C)cc1 | GI50 | 6.35 µM |
| COc1ccc(-c2nc(-c3nc4ccc(F)cc4[nH]3)cc3c2[nH]c2ccccc23)cc1 | GI50 | 3.87 µM |
| O=C(c1ccccc1)c1ccc(-c2ccc(O)cc2)cc1 | GI50 | 2.35 µM |
| O=C(CC12CC3CC(CC(C3)C1)C2)NCCOCCOCCNC(=O)c1cc2c(o1)C(=O)c1ccccc1C2=O | GI50 | 1.46 µM |

---

# System: HCC-2998 colon
# assay method text: NCI tumour cell line growth inhibition, 48 h
TGI overview

| compound | TGI |
| --- | --- |
| Oc1c(OCc2nnc(CCCCCCCCc3nnc(COc4ccc5ccccc5c4O)n3Nc3ccccc3)n2Nc2ccccc2)ccc2ccccc12 | 21.8 µM |
| CCc1nc2c(O)ccc(O)c2nc1C | > 54.9 µM |
| O=C(Cn1ccnc1[N+](=O)[O-])N(CCO)CCO | > 250 µM |
| COc1ccc(-n2sc3ncc(-c4ccccc4)cc3c2=O)cc1 | > 100 µM |
| COC(=O)N1[C@H]2Cc3c(OC)c(C)c(OC)c(OC)c3[C@@H]1/C(=C\c1cc(OC)c(OC)c(C)c1OC)N(Cc1ccccc1)C2=O | > 100 µM |
| CCCCN(CC)C(=O)C(=O)C1C(=O)Nc2ccccc2S1=O (centres undefined) | > 100 µM |
| N#Cc1c(-c2ccco2)c2c(n(C3OC(CO)C(O)C(O)C3O)c1=S)CCCC2 (centres undefined) | > 100 µM |
| O=S(=O)(c1cccc(C(F)(F)F)c1)N1c2ccccc2-n2cccc2C1c1cccnc1 (centres undefined) | 43.7 µM |
| CN(C)c1c(Cl)c(=O)oc2c1ccc1nc(-c3ccccc3)sc12 | > 100 µM |
| O=S(=O)(O)c1cc(Cl)c(O)c2ncc(Cl)cc12 | > 100 µM |
| O=C(/C=C/c1ccc(OCCCCCCCCCCOc2ccc(/C=C/C(=O)c3ccc(Cl)cc3)cc2)cc1)c1ccc(Cl)cc1 | > 100 µM |
| O=C1C(=O)c2ccc(Br)cc2-c2cc(Br)ccc21 | > 100 µM |
| CC(=O)N[C@@H](Cc1ccc(O)cn1)C(=O)NCc1cccc(F)c1 | > 100 µM |
| COc1ccc2c(c1)C(=O)c1c-2c(NCCCN(C)C)nc2ccccc12 | 11.7 µM |
| N#Cc1[nH]c(=O)n(-c2ccc([N+](=O)[O-])cc2)c1N | > 10 µM |
| Cc1ncc([N+](=O)[O-])n1CCN(C)CCCCn1ccnc1[N+](=O)[O-] | > 100 µM |
| COc1ccc(-c2nc(-c3nc4ccc(F)cc4[nH]3)cc3c2[nH]c2ccccc23)cc1 | 26.2 µM |
| N#C/C(=C\c1ccc(CP(=O)(O)O)cc1)C(N)=O | > 100 µM |
| COc1ccc(NC(=S)NN=C(C)c2cccc(C(C)=NNC(=S)Nc3ccc(OC)cc3)n2)cc1 | > 100 µM |
| CCOc1ncn(-c2ccc(NC(=S)Nc3cccc(O)c3)cc2)n1 | > 100 µM |
| Brc1c[n+](Cc2ccc3ccccc3c2)cn1Cc1ccc2ccccc2c1 | 2.84 µM |
| COc1ccc2c(O)c3[n+](cc2c1OC)CCc1cc2c(cc1-3)OCO2 | > 100 µM |
| Cn1ncc2cc(-c3cnc(N)c(Cl)c3N3CCC4(CCNC4=O)CC3)ccc21 | > 100 µM |
| CC1OCC2OC(C)OC(C3C4=C(CC(C)(C)CC4=O)OC4=C3C(=O)CC(C)(C)C4)C2O1 (centres undefined) | > 100 µM |
| COc1ccc(CC(=O)c2cc(OC)c(OC)cc2C)cc1OC | > 100 µM |
| CN(C(=O)c1ccc(F)cc1C(F)(F)F)C1CCN(c2nnc(-c3ccnn3C)c3ccccc23)CC1 | > 100 µM |
| COC(=O)C1Cc2c(C)cccc2C1=O (centres undefined) | > 100 µM |
| CN(CCNC(=O)c1[nH]nc2c1ccc1ccccc12)CCNC(=O)c1[nH]nc2c1ccc1ccccc12 | 3.61 µM |
| O=C(CC12CC3CC(CC(C3)C1)C2)NCCOCCOCCNC(=O)c1cc2c(o1)C(=O)c1ccccc1C2=O | 3.39 µM |
| CCOC(C)OCC#CCCBr (centres undefined) | > 100 µM |
| C=C1CC2CC[C@@]34C[C@@H]5O[C@@H]6C(O[C@H]7CC[C@H](CC(=O)OC8[C@@H](C)C9OC%10C[C@]%11(C[C@@H]%12O[C@@]%13(C[C@@H](C)[C@@H]%12O%11)C[C@H](C)[C@@H]%11OC%12CC(C(O)CO)OC%12C[C@@H]%11O%13)OC%10CC9O[C@H]8C[C@H]8O[C@@H](CC[C@@H]1O2)C[C@@H](C)C8=C)O[C@@H]7[C@@H]6O3)C5O4 (some centres undefined) | 0.00865 µM |
| COc1ccc(C2SCC(=O)N2N=C2NC(=O)CC(=O)N2)cc1 (centres undefined) | > 100 µM |
| C[N+]1(C)C2Cc3ccccc3C1Cc1ccccc12 | > 100 µM |
| CCOC(=O)c1cc2cc(Cc3ccc4[nH]c(C(=O)OCC)cc4c3)ccc2[nH]1 | > 100 µM |
| N#CI1OC(=O)c2ccccc21 | > 100 µM |
| O=c1[nH]cnc2c1nnn2CCCn1nnc2c(=O)[nH]cnc21 | > 100 µM |
| CSc1nc2c(c(N(C)C)n1)C=Nn1c(nc3ccccc31)S2 | > 100 µM |
| COc1ccc(C2CC(c3cc4c(C)c(C(=O)c5ccccc5)oc4cc3O)=Nc3ccccc3S2)cc1OC (centres undefined) | > 100 µM |
| COc1cc(OC)cc(N2CCC(c3c(N)nc(N)nc3Cl)CC2)c1 | > 100 µM |
